Known MFI of a selection of binders
Target: T1, IL-12 (Human IL12 (His Tag)), Sino Biological Cat. No. CT-050-H08H-20 (human, UniProt P29460 23-328; P29459 23-219)
T1 construct: Bought His-tagged p35/p40 heterodimer
T1 sequence (looked up) 1: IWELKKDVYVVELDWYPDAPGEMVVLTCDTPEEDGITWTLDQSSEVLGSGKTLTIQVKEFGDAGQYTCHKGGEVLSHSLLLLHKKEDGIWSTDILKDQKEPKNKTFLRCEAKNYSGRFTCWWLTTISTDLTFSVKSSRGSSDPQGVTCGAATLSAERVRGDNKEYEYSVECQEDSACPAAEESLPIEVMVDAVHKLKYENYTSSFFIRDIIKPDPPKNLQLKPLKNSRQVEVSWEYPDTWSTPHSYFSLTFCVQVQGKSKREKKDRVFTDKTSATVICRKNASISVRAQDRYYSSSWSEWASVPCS
T1 sequence (looked up) 2: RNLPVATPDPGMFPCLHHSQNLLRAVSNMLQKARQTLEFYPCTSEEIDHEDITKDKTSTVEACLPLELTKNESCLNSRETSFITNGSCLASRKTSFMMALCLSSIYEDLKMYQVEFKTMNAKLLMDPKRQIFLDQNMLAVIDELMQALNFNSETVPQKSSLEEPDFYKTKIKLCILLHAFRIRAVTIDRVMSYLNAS
Assay: FACS competition, IL-12-His 20 nM on 293T-IL-12RB1&IL-23R cells, antibody 0.04 µg/mL
Answer field: number only, no words.

H5L11 (antibody, human IgG1, kappa, V domains shown, IgG1/kappa) VH: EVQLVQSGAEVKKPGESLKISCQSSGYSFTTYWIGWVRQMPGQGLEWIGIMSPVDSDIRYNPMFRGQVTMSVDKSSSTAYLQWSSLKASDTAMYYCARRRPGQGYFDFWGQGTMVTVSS VL: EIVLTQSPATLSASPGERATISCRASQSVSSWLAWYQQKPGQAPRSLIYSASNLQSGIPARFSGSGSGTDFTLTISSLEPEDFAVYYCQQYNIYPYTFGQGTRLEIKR ... 151
H5L14 (antibody, human IgG1, kappa, V domains shown, IgG1/kappa) VH: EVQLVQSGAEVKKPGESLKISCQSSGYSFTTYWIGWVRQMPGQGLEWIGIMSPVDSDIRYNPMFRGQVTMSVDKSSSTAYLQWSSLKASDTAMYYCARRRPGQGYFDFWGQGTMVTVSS VL: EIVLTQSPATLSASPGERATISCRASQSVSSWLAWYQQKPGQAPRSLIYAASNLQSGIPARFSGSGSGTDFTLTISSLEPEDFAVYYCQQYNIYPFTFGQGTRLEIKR ... 155

Next binder, MFI to be filled in.
The reported value for H5L9 (antibody, human IgG1, kappa, V domains shown, Humanized anti-human IL-12/IL-23 p40 antibody; IgG1 (P01857) / kappa (P01834) constant regions) VH: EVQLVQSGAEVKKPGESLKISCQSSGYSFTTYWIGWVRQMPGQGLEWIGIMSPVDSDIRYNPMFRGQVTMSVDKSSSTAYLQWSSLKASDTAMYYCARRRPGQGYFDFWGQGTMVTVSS VL: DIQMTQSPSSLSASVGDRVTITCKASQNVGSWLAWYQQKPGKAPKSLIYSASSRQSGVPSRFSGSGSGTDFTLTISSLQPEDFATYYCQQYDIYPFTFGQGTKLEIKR in terms of MFI is 158
